In this section, each of the binders is paired with its reported kon.
tested system: T1, Human VE-PTP (HPTP-β) containing first eight FN3 repeats with C-terminal His6 tag (Human ½ VE-PTP ECD) (human, UniProt P23467 23-820)
T1 construct: Produced in HEK293 cells and purified by the His tag; it was not cut off; also called Human Beta ½ ECD
T1 sequence: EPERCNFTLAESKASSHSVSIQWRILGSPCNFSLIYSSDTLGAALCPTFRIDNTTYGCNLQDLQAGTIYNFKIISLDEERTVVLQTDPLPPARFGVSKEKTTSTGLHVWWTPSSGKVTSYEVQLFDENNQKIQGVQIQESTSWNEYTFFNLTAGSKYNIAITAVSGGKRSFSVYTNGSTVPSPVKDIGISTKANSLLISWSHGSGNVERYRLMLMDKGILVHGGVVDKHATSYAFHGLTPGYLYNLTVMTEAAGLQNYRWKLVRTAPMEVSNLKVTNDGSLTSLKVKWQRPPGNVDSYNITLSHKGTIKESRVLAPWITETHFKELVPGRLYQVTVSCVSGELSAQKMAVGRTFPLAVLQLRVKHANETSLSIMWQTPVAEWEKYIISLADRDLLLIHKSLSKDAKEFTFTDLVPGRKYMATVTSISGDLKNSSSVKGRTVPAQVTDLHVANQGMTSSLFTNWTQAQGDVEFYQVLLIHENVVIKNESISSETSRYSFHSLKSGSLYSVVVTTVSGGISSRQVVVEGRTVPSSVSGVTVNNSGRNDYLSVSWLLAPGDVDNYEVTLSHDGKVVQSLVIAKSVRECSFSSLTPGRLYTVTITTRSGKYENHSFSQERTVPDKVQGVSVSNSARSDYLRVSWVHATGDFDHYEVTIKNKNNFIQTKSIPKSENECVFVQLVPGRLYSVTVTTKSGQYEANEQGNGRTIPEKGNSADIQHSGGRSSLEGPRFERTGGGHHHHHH
test summary: SPR (Biacore 3000), antibody captured on anti-human IgG, antigen as analyte 50-0 nM
The response must be a number in M⁻¹ s⁻¹ with no trailing unit.

>>> numeric_result("mouse/human chimeric antibody HC0LC0 (antibody, human IgG4 S228P, kappa, V domains shown, Murine variable domains of R15E6 on human IgG4 (S228P) and kappa constant domains, expressed in CHO cells; also called VH0-VL0) VH: EVQLVETGGGLVQPKGSMKLSCAASGFTFNANAMNWIRQAPGKGLEWVARIRTKSNNYATYYAGSVKDRFTISRDDAQNMLYLQMNDLKTEDTAMYYCVRDYYGSSAWITYWGQGTLVTVSA VL: DIVMTQSHKFMSTSVGDRVSITCKASQHVGTAVAWYQQKPDQSPKQLIYWASTRHTGVPDRFTGSGSGTDFTLTISNVQSEDLADYFCQQYSSYPFTFGSGTKLEIKR")
209000
>>> numeric_result("humanized R15E6 variant HC2LC1 (antibody, human IgG4 S228P, kappa, V domains shown, Human IgG4 (S228P) / kappa, expressed in CHO cells; Signal peptides left out by range; also called VH2-VL1) VH: EVQLVESGGGLVQPGGSLRLSCAASGFTFNANAMNWVRQAPGKGLEWVGRIRTKSNNYATYYAGSVKDRFTISRDDSKNSLYLQMNSLKTEDTAVYYCVRDYYGSSAWITYWGQGTLVTVSS VL: DVVMTQSPSFLSASVGDRVTITCKASQHVGTAVAWYQQRPGKAPKLLIYWASTRHTGVPSRFSGSGSGTEFTLTISSLQPEDFATYFCQQYSSYPFTFGGGTKLEIKR")
"1.08e+06"
>>> numeric_result("humanized R15E6 variant HC1LC2 (antibody, human IgG4 S228P, kappa, V domains shown, Human IgG4 (S228P) / kappa, expressed in CHO cells; Signal peptides left out by range; also called VH1-VL2) VH: EVQLVESGGGLVQPGGSLKLSCAASGFTFNANAMNWVRQASGKGLEWVGRIRTKSNNYATYYAGSVKDRFTISRDDSKNTAYLQMNSLKTEDTAAYYCVRDYYGSSAWITYWGQGTLVTVSS VL: DIVMTQSPDSLAVSLGERATINCKASQHVGTAVAWYQQKPGQPPKLLIYWASTRHTGVPDRFSGSGSGTDFTLTISSLQAEDVAVYYCQQYSSYPFTFGQGTKLEIKR")
410000

Query :: Look up kon for this binder: humanized R15E6 variant HC1LC4 (antibody, human IgG4 S228P, kappa, V domains shown, Human IgG4 (S228P) / kappa, expressed in CHO cells; Signal peptides left out by range; also called VH1-VL4) VH: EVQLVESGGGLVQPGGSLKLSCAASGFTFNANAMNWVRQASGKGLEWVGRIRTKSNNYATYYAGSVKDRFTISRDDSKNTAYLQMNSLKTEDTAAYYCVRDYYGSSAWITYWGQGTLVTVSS VL: DIVMTQSPDSLAVSLGERATINCKASQHVGTAVAWYQQKPEQPPKLLIYWASTRHTGVPDRFSGSGSGTDFTLTISSLQAEDVAVYYCQQYSSYPFTFGGGTKVEIKR
Result :: 596000

Query :: Please answer likewise for humanized R15E6 variant HC2LC4 (antibody, human IgG4 S228P, kappa, V domains shown, Human IgG4 (S228P) / kappa, expressed in CHO cells; Signal peptides left out by range; also called VH2-VL4) VH: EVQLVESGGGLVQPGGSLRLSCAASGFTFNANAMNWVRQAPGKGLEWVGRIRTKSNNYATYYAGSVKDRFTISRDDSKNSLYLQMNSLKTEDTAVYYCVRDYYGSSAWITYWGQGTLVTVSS VL: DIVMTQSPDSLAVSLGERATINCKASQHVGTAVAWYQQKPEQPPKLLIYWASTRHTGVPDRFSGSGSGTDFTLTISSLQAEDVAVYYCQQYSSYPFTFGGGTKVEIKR
Result :: 986000
